- target_under_test: M2 muscarinic receptor (Rattus norvegicus)
- Construct: from tissue; host or cells: rat heart membrane homogenate
- Sequence (P10980 whole entry): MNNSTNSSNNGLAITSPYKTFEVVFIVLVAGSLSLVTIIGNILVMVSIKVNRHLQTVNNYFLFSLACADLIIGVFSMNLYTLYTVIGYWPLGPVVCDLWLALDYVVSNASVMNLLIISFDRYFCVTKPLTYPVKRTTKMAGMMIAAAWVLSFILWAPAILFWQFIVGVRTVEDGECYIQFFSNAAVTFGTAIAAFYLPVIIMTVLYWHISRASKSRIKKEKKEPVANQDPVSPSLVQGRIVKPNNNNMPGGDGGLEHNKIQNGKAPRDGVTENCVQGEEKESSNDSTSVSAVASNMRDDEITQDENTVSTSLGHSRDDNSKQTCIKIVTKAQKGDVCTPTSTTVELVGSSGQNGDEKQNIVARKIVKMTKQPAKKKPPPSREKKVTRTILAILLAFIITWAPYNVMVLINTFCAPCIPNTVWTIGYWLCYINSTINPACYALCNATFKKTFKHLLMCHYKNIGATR
- experiment_summary: Radioligand binding assay, [3H]-N-methylscopolamine, rat heart membranes
- applied_conditions: Receptor Binding Assay M2 pKi, [3H]-NMS
- Experimental: The affinity of test compounds for M2 and M3 muscarinic receptor subtypes was determined by [^3H]-N-methylscopolamine binding studies using rat heart and submandibular gland respectively as described by Moriya et al., (Life Sci, 1999, 64(25):2351-2358) with minor modifications. […] Ligand binding assay: The compounds were dissolved and diluted in DMSO. […] Non-specific binding was determined in the presence of 1 μM atropine. […]
# Ki annotations
metric_name: Ki

1. COc1ccc(S(=O)(=O)NC2CCC([C@](O)(C(=O)NC[C@@H]3[C@H]4CN(Cc5ccccc5)C[C@@H]34)c3ccccc3)C2)cc1 (stereo partly shown) [Compound No. 9]    > 1000 nM
2. O=C(NCC1C2CN(Cc3ccccc3)CC12)C(O)(c1ccccc1)C1CCC(NS(=O)(=O)c2ccc([N+](=O)[O-])cc2)C1 (single isomer, unassigned) [Compound No. 6]    > 1580 nM
3. O=C(NC[C@@H]1[C@H]2CN(Cc3ccccc3)C[C@@H]12)[C@](O)(c1ccccc1)C1CCC(NS(=O)(=O)c2ccccc2)C1 (stereo partly shown) [Compound No. 7]    > 1580 nM
4. O=C(NC[C@@H]1[C@H]2CN(Cc3ccccc3)C[C@@H]12)[C@](O)(c1ccccc1)C1CCC(NS(=O)(=O)c2ccc(Br)cc2)C1 (stereo partly shown) [Compound No. 10]    > 1000 nM

All values here come from patent US7288562B2.
